system under test: Orexin/Hypocretin receptor type 1 (Homo sapiens) (UniProt O43613)
Sequence (O43613 whole entry, looked up): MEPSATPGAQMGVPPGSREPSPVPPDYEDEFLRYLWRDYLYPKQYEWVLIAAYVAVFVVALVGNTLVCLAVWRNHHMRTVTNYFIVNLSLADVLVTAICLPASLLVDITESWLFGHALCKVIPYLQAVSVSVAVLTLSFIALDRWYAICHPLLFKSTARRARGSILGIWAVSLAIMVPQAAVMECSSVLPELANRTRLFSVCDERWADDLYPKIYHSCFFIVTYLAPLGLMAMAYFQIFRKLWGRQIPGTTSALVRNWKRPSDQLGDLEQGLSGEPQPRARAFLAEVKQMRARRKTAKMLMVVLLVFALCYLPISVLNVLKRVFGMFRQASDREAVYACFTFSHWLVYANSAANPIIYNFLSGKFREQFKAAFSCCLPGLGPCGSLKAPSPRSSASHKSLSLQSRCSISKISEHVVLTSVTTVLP
experiment description: HCRTR1 blockers, calcium flux retest – fluorescence, CHO/OX1R cells, Fluo-8 calcium, orexin A, confirmation (AID 492963);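 note: 0% = agonist challenge alone and 100% = reference antagonist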
study conditions: orexin A calcium Fluo-8 fluorescence, at 5 µM, hits give high values
In all, about 1,100 compounds went through this assay and about 420 (38%) were called active. The list is a sample of the results.
reported property: inhibition

Cc1cc(N2CCCC2=O)cc(C)c1S(N)(=O)=O ... 1.01% (inactive)
COc1ccc(N2CC(C(=O)NCCN3C(=O)S/C(=C\c4cccnc4)C3=O)CC2=O)c(OC)c1 (configuration not stated) ... 26.6% (inactive)
N#C/C(=C1\CCCN1)c1nc(-c2ccccc2)cs1 ... 40% (active)
Cc1cccc(NS(=O)(=O)c2cccc(C(=O)NNC(=O)c3ccccc3O)c2)c1 ... 14.2% (inactive)

Task item: GET /values?readout=inhibition&item= CC1(C)C2CC=C(/C=N/NC(=O)C3CC3)C1C2 (configuration not stated)
Reply: -24.5% (inactive)

Task item: Do the same for `COc1ccc2[nH]cc(/C=C(/C#N)S(=O)(=O)c3ccccc3)c2c1` please
Reply: 8.34% (inactive)

Task item: And `Cc1ccc(S(=O)(=O)N2CCN(c3ncnc4ccccc34)CC2)cc1` ?
Reply: 15% (inactive)

Task item: Another: O=C(NC(Cc1c[nH]c2ccccc12)C(=O)N/N=C/c1ccc(Br)cc1)c1cccs1 (configuration not stated)
Reply: 55.8% (active)

Task item: Also, `O=C(CCCN1CCc2[nH]c3ccc(F)cc3c2C1)c1ccc(F)cc1` please.
Reply: 26.4% (inactive)

Task item: Please answer likewise for Cc1ccc2c(C)c(C(=O)N(C)CCC3CCCCO3)oc2c1C (configuration not stated)
Reply: -17.4% (inactive)

Task item: Consider next the molecule `O=C(N/N=C/c1c(Cl)[nH]c2ccccc12)c1sc2ccccc2c1Cl` in the same way.
Reply: 79% (active)

Task item: What do we get for `N/C(=N\OC(=O)Nc1ccc(Cl)c(Cl)c1)c1ncc(C(F)(F)F)cc1Cl` ?
Reply: 29% (active)

Task item: Now the same for `CCCN(CC(=O)Nc1ccccc1OC)C(=O)CCC(=O)c1ccc(F)cc1`
Reply: 1.45% (inactive)

Task item: Okay, and `Cc1ccc(NC(=O)COc2ccc(-n3ccnc3)cc2)cc1Cl` ?
Reply: 22.1% (inactive)

Task item: Continue with `CCOC(=O)N1CCN(C(=O)c2ccc(S(=O)(=O)Nc3cccc(C(F)(F)F)c3)cc2)CC1`
Reply: 15.2% (inactive)

Task item: Then `N#CC(=C1SC=CS1)c1nc(-c2ccccc2)cs1` ?
Reply: 87.3% (active)

Task item: Record: `CCn1c(SCC(=O)c2ccc3ccccc3c2)nnc1-c1cccs1`
Reply: 29.5% (active)

Task item: Same question for `COc1ccc(/C=C/C(=O)c2ccc(NS(=O)(=O)c3ccc(C)cc3)cc2)cc1O` please.
Reply: 42.2% (active)

* * *

system under test: Orexin/Hypocretin receptor type 1 (Homo sapiens) (UniProt O43613)
experiment description: HCRTR1 blockers, calcium flux retest – fluorescence, CHO/OX1R cells, Fluo-8 calcium, orexin A, confirmation (AID 492963);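 note: 0% = agonist challenge alone and 100% = reference antagonist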
study conditions: orexin A calcium Fluo-8 fluorescence, at 5 µM
Screen size: about 1,100 compounds; about 420 (38%) were called active. Cut-off read from the data, not from the text of the source: active = inhibition above about 29%; inactive = the rest. A selection follows.
Choose one outcome from this list and give only that: Yes (active), No (inactive)

Worked set:
CCC(=O)N(C)C(c1ccccc1Cl)c1nnnn1-c1c(C)cccc1C (centres undefined) ... No
CC(Oc1ccc2ccccc2c1)C(=O)NNC(=S)NC(=O)c1ccco1 (centres undefined) ... No
Nc1nc(COC(=O)CCC(=O)c2ccc(Cl)cc2)nc(Nc2ccccc2)n1 ... No

Consider the additional compound presented here.
Task item: So what was the verdict on `COc1cccc(/C=N/Nc2cc(C)nc(-c3ccccc3O)n2)c1O` in this test?
Reply: Yes
